assay-info: Ratio of drug concentration in brain to plasma in C57BL/6 mouse measured at 5 mins
Type: ADME, organism-based
condition-description: read-out: BPR
recorded-metric: Kp at 5 min

>  <molecule>
CNC(=O)c1csc2c(C(F)(F)F)cc(N3CCC(OC(=O)N[C@@H](C)C4CC4)CC3)nc12

>  <recorded-number>
0.76

$$$$
>  <molecule>
CNC(=O)c1csc2c(C(F)(F)F)cc(N3CCN(C(C)C(=O)NC4CC4)CC3)nc12 (stereo not drawn)

>  <recorded-number>
0.01

$$$$
>  <molecule>
CNC(=O)c1csc2c(C(F)(F)F)cc(N3CCC(OC(=O)N4CC(OC(F)(F)F)C4)CC3)nc12

>  <recorded-number>
1.67

$$$$
>  <molecule>
CNC(=O)c1csc2c(C(F)(F)F)cc(N3CCN(C(=O)COC(C)C)CC3)nc12

>  <recorded-number>
0.07

$$$$
>  <molecule>
CC[C@H](C)NC(=O)OC1CCN(c2cc(C(F)(F)F)c3scc(C(=O)NC)c3n2)CC1

>  <recorded-number>
1.45

$$$$
>  <molecule>
CNC(=O)c1csc2c(C(F)(F)F)cc(N3CCN(CC(=O)C(C)(C)C)CC3)nc12

>  <recorded-number>
0.81

$$$$
>  <molecule>
CNC(=O)c1csc2c(C(F)(F)F)cc(N3CCC(OC(=O)NC(C)C)CC3)nc12

>  <recorded-number>
1.88

$$$$
>  <molecule>
CNC(=O)c1csc2c(C(F)(F)F)cc(N3CCN(CC(O)COC(C)(C)C)CC3)nc12 (stereo not drawn)

>  <recorded-number>
0.93

$$$$

====

# concentration at 1 h listing for each entry below
assay-info: Drug uptake in C57BL/6 mouse brain at 3 mg/kg, iv measured at 1 hr
Assay type: ADME, organism-based
condition-description: read-out: Drug uptake

>  <compound>
CNC(=O)c1csc2c(C(F)(F)F)cc(N3CCN(CC(O)COC(C)(C)C)CC3)nc12 (stereo not given)

>  <concentration at 1 h, ng/mL>
210

$$$$
>  <compound>
CNC(=O)c1csc2c(C(F)(F)F)cc(N3CCC(OC(=O)N[C@@H](C)COC(F)(F)F)CC3)nc12

>  <concentration at 1 h, ng/mL>
148

$$$$
>  <compound>
CNC(=O)c1csc2c(C(F)(F)F)cc(N3CCC(OC(=O)NCC4CC4)CC3)nc12

>  <concentration at 1 h, ng/mL>
132

$$$$
>  <compound>
CNC(=O)c1csc2c(C(F)(F)F)cc(N3CCN(CC(=O)C(C)(C)C)CC3)nc12

>  <concentration at 1 h, ng/mL>
170

$$$$
>  <compound>
CC[C@H](C)NC(=O)OC1CCN(c2cc(C(F)(F)F)c3scc(C(=O)NC)c3n2)CC1

>  <concentration at 1 h, ng/mL>
192

$$$$

Taken from ChEMBL document CHEMBL4725449.
